Every entry's value here was drawn from patent US9776995B2.

Let's look at some molecules and their measured IC50.
Experimental system: Nav 1.7 (Homo sapiens (Human))
Sequence (Q15858 whole entry): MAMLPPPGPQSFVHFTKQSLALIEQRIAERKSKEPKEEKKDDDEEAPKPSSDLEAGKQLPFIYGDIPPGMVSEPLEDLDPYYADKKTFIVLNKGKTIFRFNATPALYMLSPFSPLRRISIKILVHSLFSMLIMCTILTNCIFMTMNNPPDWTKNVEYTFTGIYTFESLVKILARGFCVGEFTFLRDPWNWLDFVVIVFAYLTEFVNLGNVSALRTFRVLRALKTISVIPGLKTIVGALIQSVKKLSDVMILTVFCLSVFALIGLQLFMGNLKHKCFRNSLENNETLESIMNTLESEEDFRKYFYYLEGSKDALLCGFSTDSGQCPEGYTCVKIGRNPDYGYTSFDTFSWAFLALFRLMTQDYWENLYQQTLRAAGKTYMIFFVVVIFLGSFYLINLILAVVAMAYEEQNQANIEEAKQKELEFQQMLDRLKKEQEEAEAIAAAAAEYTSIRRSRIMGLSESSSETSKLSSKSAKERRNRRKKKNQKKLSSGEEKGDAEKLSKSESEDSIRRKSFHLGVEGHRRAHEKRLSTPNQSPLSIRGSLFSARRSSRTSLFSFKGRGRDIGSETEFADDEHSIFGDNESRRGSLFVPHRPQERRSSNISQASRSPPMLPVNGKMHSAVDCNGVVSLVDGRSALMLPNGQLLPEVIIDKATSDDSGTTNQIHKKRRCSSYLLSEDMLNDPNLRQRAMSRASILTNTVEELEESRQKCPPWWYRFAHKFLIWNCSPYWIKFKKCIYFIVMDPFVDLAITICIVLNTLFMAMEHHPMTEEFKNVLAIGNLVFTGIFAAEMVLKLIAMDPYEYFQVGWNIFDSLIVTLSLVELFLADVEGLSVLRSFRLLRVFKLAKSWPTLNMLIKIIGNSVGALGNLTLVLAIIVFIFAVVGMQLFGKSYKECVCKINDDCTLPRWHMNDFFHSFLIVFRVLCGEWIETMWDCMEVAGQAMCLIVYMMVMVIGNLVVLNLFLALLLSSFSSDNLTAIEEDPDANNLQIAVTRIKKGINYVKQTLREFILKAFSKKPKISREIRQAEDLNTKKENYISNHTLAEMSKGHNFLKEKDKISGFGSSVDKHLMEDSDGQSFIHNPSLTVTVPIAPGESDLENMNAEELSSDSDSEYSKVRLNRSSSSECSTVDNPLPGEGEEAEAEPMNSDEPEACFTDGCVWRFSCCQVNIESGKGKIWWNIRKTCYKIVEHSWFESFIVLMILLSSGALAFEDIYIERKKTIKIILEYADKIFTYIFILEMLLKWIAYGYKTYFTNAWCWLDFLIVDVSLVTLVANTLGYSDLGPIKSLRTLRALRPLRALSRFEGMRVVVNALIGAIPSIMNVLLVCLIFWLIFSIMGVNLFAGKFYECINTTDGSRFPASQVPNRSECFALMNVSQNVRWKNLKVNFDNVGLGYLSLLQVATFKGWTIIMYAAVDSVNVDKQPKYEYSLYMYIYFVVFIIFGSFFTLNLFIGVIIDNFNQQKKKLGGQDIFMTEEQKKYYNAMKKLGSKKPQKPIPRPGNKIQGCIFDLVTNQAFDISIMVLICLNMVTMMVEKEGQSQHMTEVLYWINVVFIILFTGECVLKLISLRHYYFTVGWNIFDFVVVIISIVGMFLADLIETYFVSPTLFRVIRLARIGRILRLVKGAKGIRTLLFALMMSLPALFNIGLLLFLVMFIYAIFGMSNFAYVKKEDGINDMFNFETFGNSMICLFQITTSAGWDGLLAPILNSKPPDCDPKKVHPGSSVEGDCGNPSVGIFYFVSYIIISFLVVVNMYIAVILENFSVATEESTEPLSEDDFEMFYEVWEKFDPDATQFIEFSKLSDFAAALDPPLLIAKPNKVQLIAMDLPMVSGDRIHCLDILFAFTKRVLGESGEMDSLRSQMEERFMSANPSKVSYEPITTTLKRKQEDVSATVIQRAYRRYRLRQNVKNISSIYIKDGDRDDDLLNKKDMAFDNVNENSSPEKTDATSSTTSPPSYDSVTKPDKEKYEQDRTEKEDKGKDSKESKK
Protocol notes: in-vitro Nav 1.7 PX data
Type: cell-based
Experimental conditions: in-vitro PX data
Value expressed in nM; do not type the unit.

- COc1cc(-c2ccc(Cl)c(C)c2)c(Cl)cc1-c1nccc2cc(S(=O)(=O)Nc3ccon3)ccc12: 73.6

Enquiry: What value of measured IC50 is listed for COc1cc(-c2cc(F)cc(F)c2)ccc1-c1nccc2cc(S(=O)(=O)Nc3nnc(C)s3)ccc12 ?
Return: 1560

---

Let's look at some compounds and their measured pIC50.
Experimental system: Nav 1.5 (Homo sapiens (Human), UniProt Q14524)
Sequence (Q14524 whole entry): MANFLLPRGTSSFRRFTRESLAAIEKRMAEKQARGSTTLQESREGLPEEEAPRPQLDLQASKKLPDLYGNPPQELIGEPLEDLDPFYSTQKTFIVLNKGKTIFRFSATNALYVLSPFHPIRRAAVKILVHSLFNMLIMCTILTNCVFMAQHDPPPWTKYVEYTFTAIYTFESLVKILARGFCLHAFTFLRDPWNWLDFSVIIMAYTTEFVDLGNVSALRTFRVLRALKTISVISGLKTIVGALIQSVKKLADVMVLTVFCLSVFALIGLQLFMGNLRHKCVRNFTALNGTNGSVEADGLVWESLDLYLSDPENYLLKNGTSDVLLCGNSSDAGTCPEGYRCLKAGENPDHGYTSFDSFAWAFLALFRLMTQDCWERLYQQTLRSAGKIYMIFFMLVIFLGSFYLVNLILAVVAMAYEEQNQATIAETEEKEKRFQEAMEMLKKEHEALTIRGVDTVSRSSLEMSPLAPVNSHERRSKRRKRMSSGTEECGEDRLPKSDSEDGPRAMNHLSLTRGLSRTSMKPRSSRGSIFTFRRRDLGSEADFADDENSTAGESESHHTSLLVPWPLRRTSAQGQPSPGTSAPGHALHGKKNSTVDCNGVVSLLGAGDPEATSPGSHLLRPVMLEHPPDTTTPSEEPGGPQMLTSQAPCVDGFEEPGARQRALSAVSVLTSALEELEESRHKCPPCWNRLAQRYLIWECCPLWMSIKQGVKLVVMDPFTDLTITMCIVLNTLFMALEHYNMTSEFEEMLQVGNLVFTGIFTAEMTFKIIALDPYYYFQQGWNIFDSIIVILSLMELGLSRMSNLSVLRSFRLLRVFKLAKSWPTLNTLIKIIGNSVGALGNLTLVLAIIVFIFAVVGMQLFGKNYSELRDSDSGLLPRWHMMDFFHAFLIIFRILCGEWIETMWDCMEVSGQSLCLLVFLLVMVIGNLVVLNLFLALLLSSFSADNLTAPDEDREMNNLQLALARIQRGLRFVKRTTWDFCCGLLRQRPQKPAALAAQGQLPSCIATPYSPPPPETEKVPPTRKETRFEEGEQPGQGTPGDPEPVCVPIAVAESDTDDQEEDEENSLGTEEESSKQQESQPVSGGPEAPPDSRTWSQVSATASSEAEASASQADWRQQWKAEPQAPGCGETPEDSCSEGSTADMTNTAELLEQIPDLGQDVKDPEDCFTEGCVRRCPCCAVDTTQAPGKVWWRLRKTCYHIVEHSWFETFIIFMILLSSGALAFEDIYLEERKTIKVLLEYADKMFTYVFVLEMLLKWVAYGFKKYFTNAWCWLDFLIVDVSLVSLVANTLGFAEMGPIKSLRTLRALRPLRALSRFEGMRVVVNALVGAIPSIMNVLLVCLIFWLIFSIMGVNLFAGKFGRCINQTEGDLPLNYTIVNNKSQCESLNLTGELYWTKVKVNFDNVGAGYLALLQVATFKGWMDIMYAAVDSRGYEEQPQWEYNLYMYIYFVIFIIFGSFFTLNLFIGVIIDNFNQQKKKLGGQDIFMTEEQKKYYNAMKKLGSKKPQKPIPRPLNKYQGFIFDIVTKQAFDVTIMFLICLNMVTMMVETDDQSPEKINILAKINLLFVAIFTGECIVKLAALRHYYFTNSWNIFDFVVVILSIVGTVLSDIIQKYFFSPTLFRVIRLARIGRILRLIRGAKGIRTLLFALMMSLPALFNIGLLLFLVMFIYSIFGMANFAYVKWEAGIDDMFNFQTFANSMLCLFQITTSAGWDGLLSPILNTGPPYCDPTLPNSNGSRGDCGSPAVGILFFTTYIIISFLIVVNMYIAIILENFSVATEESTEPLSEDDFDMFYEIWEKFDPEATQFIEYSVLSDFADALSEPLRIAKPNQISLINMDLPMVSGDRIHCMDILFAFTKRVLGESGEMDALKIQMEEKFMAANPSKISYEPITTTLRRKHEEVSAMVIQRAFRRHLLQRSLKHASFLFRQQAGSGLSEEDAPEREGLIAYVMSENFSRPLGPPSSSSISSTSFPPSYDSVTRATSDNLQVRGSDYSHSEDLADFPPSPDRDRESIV
Protocol notes: in-vitro Nav 1.5 PX data
Experimental conditions: read-out: Nav 1.5 PX IC50; in-vitro PX
pIC50: −log10 of the molar value.

Record excerpt, results attached:
• COc1cc(-c2cccc(F)c2)c(Cl)cc1-c1ccnc2cc(S(=O)(=O)Nc3ccon3)ccc12 = 4.95
• COc1nc(N2CC(F)(F)C2)c(Cl)cc1-c1nccc2cc(S(=O)(=O)Nc3nncs3)ccc12 = < 4.52
• COc1nc(N2CCC(F)(F)C2)c(Cl)cc1-c1nccc2cc(S(=O)(=O)Nc3nncs3)ccc12 = < 4.52
• COc1cc(-c2cccc(F)c2)c(Cl)cc1-c1nn(C)c(=O)c2cc(S(=O)(=O)Nc3ccon3)ccc12 = < 5.00
• COc1cc(-c2cccc(C(F)(F)F)c2)c(F)cc1-c1nn(C)c(=O)c2cc(S(=O)(=O)Nc3nncs3)ccc12 = < 5.00
• COc1cc(-c2cccc(C)c2)c(C#N)cc1-c1nccc2cc(S(=O)(=O)Nc3nncs3)ccc12 = < 5.00

Enquiry: What value of measured pIC50 is listed for COc1cc(-c2ccc(F)cc2)c(C#N)cc1-c1nccc2cc(S(=O)(=O)Nc3nncs3)ccc12 ?
Return: < 5.00

Enquiry: What value of measured pIC50 is listed for COc1cc(-c2cc(F)cc(F)c2)c(C#N)cc1-c1ncnc2cc(S(=O)(=O)Nc3nncs3)ccc12 ?
Return: < 5.00

Enquiry: What value of measured pIC50 is listed for N#CCOc1cc(-c2cccc(F)c2)ccc1-c1nccc2cc(S(=O)(=O)Nc3ccon3)ccc12 ?
Return: < 4.52

Enquiry: What value of measured pIC50 is listed for COc1nc(N2CCC(F)(F)CC2)c(Cl)cc1-c1nccc2cc(S(=O)(=O)Nc3nncs3)ccc12 ?
Return: < 4.52

Enquiry: What value of measured pIC50 is listed for COc1cc(-c2cc(C)cc(F)c2)c(C#N)cc1-c1nccc2cc(S(=O)(=O)Nc3nncs3)ccc12 ?
Return: < 5.00

Enquiry: What value of measured pIC50 is listed for COc1cc(-c2ccc(Cl)c(F)c2)c(C#N)cc1-c1nccc2cc(S(=O)(=O)Nc3nncs3)ccc12 ?
Return: < 5.00

Enquiry: What value of measured pIC50 is listed for COc1cc(-c2cccc(F)c2)c(Cl)cc1-c1ncnc2cc(S(=O)(=O)Nc3ccon3)ccc12 ?
Return: < 5.00

Enquiry: What value of measured pIC50 is listed for COc1cc(-c2ccc(C)c(F)c2)c(C#N)cc1-c1nccc2cc(S(=O)(=O)Nc3nncs3)ccc12 ?
Return: < 5.00

Enquiry: What value of measured pIC50 is listed for COc1cc(-c2ccc(Cl)c(C)c2)c(C#N)cc1-c1nccc2cc(S(=O)(=O)Nc3nncs3)ccc12 ?
Return: < 5.00
